Please respond with reported MIC for every item in the list.
Give the value in µg/mL but do not write µg/mL after it.

Entry N#CSCOc1nc(F)c(Cl)cc1Cl , Candida pelliculosa data, MIC value: 10

Summary line: N#CSCOc1nc(Cl)c(Cl)c(OCCl)c1Cl , Candida pelliculosa, reported MIC = 10

Reading of MIC for N#CSCOc1cc(C(Cl)(Cl)Cl)cc(Cl)n1 with Candida pelliculosa: 100

Let me check: N#CSCOc1c(Cl)cnc(Cl)c1Cl , system Candida pelliculosa, measured MIC is 10

N#CSCOc1nc(Cl)c(Cl)cc1Cl tested on Candida pelliculosa gave MIC: 10

###

I'd be grateful if you could share measured MIC for these entries.
Give the number; µg/mL is assumed, so skip it.

Simply: N#CSCOc1c(Cl)cnc(Cl)c1Cl [III] , Candida albicans, MIC = 10

Field MIC (system: Candida albicans) for entry N#CSCOc1cc(C(Cl)(Cl)Cl)cc(Cl)n1 [VI] = 100

Reading of MIC for N#CSCOc1nc(Cl)c(Cl)c(OCCl)c1Cl [IV] with Candida albicans: 10

Record N#CSCOc1nc(Cl)c(Cl)cc1Cl [I] / Candida albicans, MIC recorded as 10

Sample N#CSCOc1nc(F)c(Cl)cc1Cl [V] , system: Candida albicans. Its MIC is 10
